I'd appreciate it if you could supply Corn plant response rating values for the items below.
Test system: corn
method: Test C pre-/postemergence test
Assay type: in vivo, Zea mays
setup.conditions: preemergence, 250 g ai/ha; scale 0 (no effect) to 100 (complete control)

Exercise: GET /values?readout=Corn plant response rating&system=corn&item= [O-][n+]1cc(Cl)ccc1[S+]([O-])Cc1c(C(F)(F)F)nn(CC(F)(F)F)c1Cl (stereo not shown) [Compound 47]
Solution: 98

Exercise: GET /values?readout=Corn plant response rating&system=corn&item= C#CCOc1c(C[S+]([O-])c2cccc[n+]2[O-])c(C(F)(F)F)nn1C (stereo not shown) [Compound 76]
Solution: 100

Exercise: GET /values?readout=Corn plant response rating&system=corn&item= Cn1nc(OC(F)F)c(CS(=O)(=O)c2cccc[n+]2[O-])c1C(F)(F)F [Compound 80]
Solution: 98

Exercise: GET /values?readout=Corn plant response rating&system=corn&item= CCc1cc[n+]([O-])c(S(=O)(=O)Cc2c(C(F)(F)F)nn(C)c2OC(F)F)c1 [Compound 102]
Solution: 0

###

Test system: blackgrass
method: Test C pre-/postemergence test
Assay type: in vivo, Alopecurus myosuroides
setup.conditions: preemergence, 250 g ai/ha; scale 0 (no effect) to 100 (complete control)
I'd appreciate it if you could supply Blackgrass plant response rating values for the items below.
Hey, just send me the number, nothing else.

Exercise: Blackgrass plant response rating lookup needed for Cn1nc(C(F)(F)F)c(CS(=O)(=O)c2ccc(Cl)c[n+]2[O-])c1OCC(F)(F)F [Compound 73] , thanks.
Solution: 100

Exercise: Blackgrass plant response rating lookup needed for Cn1nc(C(F)(F)C(F)(F)F)c(C[S+]([O-])c2cccc[n+]2[O-])c1OCC(F)(F)F (centres unmarked) [Compound 79] , thanks.
Solution: 100

Exercise: Blackgrass plant response rating lookup needed for Cc1cc[n+]([O-])c(S(=O)(=O)Cc2c(C(F)(F)F)nn(C)c2OCC(F)F)c1 [Compound 94] , thanks.
Solution: 100

Exercise: Blackgrass plant response rating lookup needed for CCn1nc(C(F)(F)F)c(C[S+]([O-])c2cccc[n+]2[O-])c1OCC(F)(F)F (racemic) [Compound 65] , thanks.
Solution: 100

Exercise: Blackgrass plant response rating lookup needed for CC(Oc1c(C[S+]([O-])c2ccc(Cl)c[n+]2[O-])c(C(F)(F)F)nn1C)C(F)(F)F (centres unmarked) [Compound 87] , thanks.
Solution: 100

Exercise: Blackgrass plant response rating lookup needed for C#CCOc1c(C[S+]([O-])c2cccc[n+]2[O-])c(C(F)(F)F)nn1C (centres unmarked) [Compound 76] , thanks.
Solution: 100

Exercise: Blackgrass plant response rating lookup needed for CC(Oc1c(CS(=O)(=O)c2cccc[n+]2[O-])c(C(F)(F)F)nn1C)C(F)(F)F (centres unmarked) [Compound 82] , thanks.
Solution: 100

Exercise: Blackgrass plant response rating lookup needed for CCn1nc(C(F)(F)F)c(C[S+]([O-])c2cc(C)cc[n+]2[O-])c1OCC(F)(F)F (racemic) [Compound 66] , thanks.
Solution: 100

###

Tested on: common groundsel
method: Test F preemergence test
Type: in vivo, Senecio vulgaris
setup.conditions: Preemergence; 31 g ai/ha; scale 0 to 100
Record True whenever Plant response rating, Groundsel is at 50 or higher; record False when lower.

Exercise: Please indicate if the recorded Plant response rating, Groundsel for "Cn1nc(C(F)(F)F)c(CS(=O)(=O)c2cccc[n+]2[O-])c1OC(F)F" meets or exceeds 50.
Solution: True

Exercise: Please indicate if the recorded Plant response rating, Groundsel for Cn1nc(C(F)(F)F)c(C[S+]([O-])c2ccc(Cl)c[n+]2[O-])c1OCC(F)F (stereo not shown) meets or exceeds 50.
Solution: False

Exercise: Please indicate if the recorded Plant response rating, Groundsel for Cn1nc(C(F)(F)F)c(C[S+]([O-])c2cccc[n+]2[O-])c1Cl (stereo not shown) meets or exceeds 50.
Solution: False

Exercise: Please indicate if the recorded Plant response rating, Groundsel for CC(c1c(C(F)(F)F)nn(C)c1OC(F)F)S(=O)(=O)c1cccc[n+]1[O-] (stereo not shown) meets or exceeds 50.
Solution: True

Exercise: Please indicate if the recorded Plant response rating, Groundsel for Cc1cc[n+]([O-])c(S(=O)(=O)C(C)c2c(C(F)(F)F)nn(C)c2OC(F)F)c1 (stereo not shown) meets or exceeds 50.
Solution: False

Exercise: Please indicate if the recorded Plant response rating, Groundsel for "CCn1nc(C(F)(F)F)c(CS(=O)(=O)c2cc(C)cc[n+]2[O-])c1OCC(F)(F)F" meets or exceeds 50.
Solution: False

Exercise: Please indicate if the recorded Plant response rating, Groundsel for CC(Oc1c(C[S+]([O-])c2ccc(Cl)c[n+]2[O-])c(C(F)(F)F)nn1C)C(F)(F)F (stereo not shown) meets or exceeds 50.
Solution: False

Exercise: Please indicate if the recorded Plant response rating, Groundsel for Cc1cc[n+]([O-])c([S+]([O-])Cc2c(C(F)(F)F)nn(C)c2OCC(F)(F)F)c1 (racemic) meets or exceeds 50.
Solution: True

Exercise: Please indicate if the recorded Plant response rating, Groundsel for CCn1nc(C(F)(F)F)c(C[S+]([O-])c2cc(C)cc[n+]2[O-])c1OCC(F)(F)F (racemic) meets or exceeds 50.
Solution: False
